Data origin, for the record: paper PMC10714400

Test system: A. baumannii ATCC19606
Test Conditions: ATCC19606, 4 h, pH 7.4
Where a SMILES comes first, the peptide text is derived from it. [ ]: non-standard residue; d: D form. Nleu = CC(C)CNCC(=O)O; Nlys = NCCCCNCC(=O)O
Can you tell me MIC A. baumannii ATCC19606, full MH at pH 7.4 for the items I'm about to list?

If you can, please state the reported MIC A. baumannii ATCC19606, full MH at pH 7.4 value of CC(C)C[C@H](NC(=O)CN(CCCCN)C(=O)[C@H](CC(C)C)NC(=O)[C@H](CC(C)C)NC(=O)[C@H](CCCCN)NC(=O)[C@H](CC(C)C)NC(=O)[C@H](CC(C)C)NC(=O)[C@H](CCCCN)NC(=O)CNCCCCN)C(=O)N[C@@H](CC(C)C)C(=O)N(CC(N)=O)CC(C)C [EB2, kKLLKLLkLLl] (H-[Nlys]KLLKLL[Nlys]LL[Nleu]-NH2) . >32 ug/mL

How about CC(C)C[C@H](NC(=O)[C@H](CC(C)C)NC(=O)[C@H](CC(C)C)NC(=O)[C@H](CCCCN)NC(=O)[C@H](CC(C)C)NC(=O)[C@H](CC(C)C)NC(=O)CN(CCCCN)C(=O)[C@H](CC(C)C)NC(=O)[C@H](CC(C)C)NC(=O)CN(CCCCN)C(=O)CNCCCCN)C(N)=O [EB6, kkLLkLLKLLL] (H-[Nlys][Nlys]LL[Nlys]LLKLLL-NH2) ? 2 ug/mL

How about CC(C)C[C@H](NC(=O)[C@H](CC(C)C)NC(=O)[C@H](CCCCN)NC(=O)[C@@H](N)CCCCN)C(=O)N[C@@H](CCCCN)C(=O)N[C@@H](CC(C)C)C(=O)N[C@@H](CC(C)C)C(=O)N[C@@H](CCCCN)C(=O)N(CC(=O)N(CC(=O)N(CC(N)=O)CC(C)C)CC(C)C)CC(C)C [EB3] (H-KKLLKLLK[Nleu][Nleu][Nleu]-NH2) ? >32 ug/mL

How about CC(C)C[C@H](NC(=O)CN(CC(C)C)C(=O)[C@H](CCCCN)NC(=O)CNCCCCN)C(=O)N(CCCCN)CC(=O)N[C@@H](CC(C)C)C(=O)N(CC(=O)N[C@@H](CCCCN)C(=O)N(CC(=O)N[C@@H](CC(C)C)C(=O)N(CC(N)=O)CC(C)C)CC(C)C)CC(C)C [EB10, kKlLkLlKlLl] (H-[Nlys]K[Nleu]L[Nlys]L[Nleu]K[Nleu]L[Nleu]-NH2) ? >32 ug/mL

====

Experiment Notes: Circular dichroism, α-helical content
Assay type: physicochemical
Test Conditions: 0.1 mg/mL, 10 mM phosphate buffer pH 7.4, 20% TFE; DichroWeb, Contin-LL
Where a SMILES comes first, the peptide text is derived from it. [ ]: non-standard residue; d: D form. Nleu = CC(C)CNCC(=O)O; Nlys = NCCCCNCC(=O)O
Assay Readout: CD %α with 20% TFE (%)
Return type: number; implicit unit %.

If you can, please state the reported CD %α with 20% TFE value of CC(C)C[C@H](NC(=O)CN(CC(C)C)C(=O)[C@H](CC(C)C)NC(=O)CN(CCCCN)C(=O)[C@H](CC(C)C)NC(=O)CN(CC(C)C)C(=O)[C@H](CCCCN)NC(=O)CN(CC(C)C)C(=O)[C@H](CC(C)C)NC(=O)CN(CCCCN)C(=O)[C@@H](N)CCCCN)C(N)=O [EB9, KkLlKlLkLlL] (H-K[Nlys]L[Nleu]K[Nleu]L[Nlys]L[Nleu]L-NH2) . 13

How about CC(C)C[C@H](NC(=O)CN(CCCCN)C(=O)[C@H](CC(C)C)NC(=O)[C@H](CC(C)C)NC(=O)[C@H](CCCCN)NC(=O)[C@H](CC(C)C)NC(=O)[C@H](CC(C)C)NC(=O)[C@H](CCCCN)NC(=O)CNCCCCN)C(=O)N[C@@H](CC(C)C)C(=O)N(CC(N)=O)CC(C)C [EB2, kKLLKLLkLLl] (H-[Nlys]KLLKLL[Nlys]LL[Nleu]-NH2) ? 15

How about CC(C)C[C@H](NC(=O)[C@H](CC(C)C)NC(=O)[C@H](CC(C)C)NC(=O)[C@@H](CCCCN)NC(=O)[C@H](CC(C)C)NC(=O)[C@H](CC(C)C)NC(=O)[C@@H](CCCCN)NC(=O)[C@H](CC(C)C)NC(=O)[C@H](CC(C)C)NC(=O)[C@@H](CCCCN)NC(=O)[C@H](N)CCCCN)C(N)=O [ln69, kkLLkLLkLLL, reference compound] (H-[dK][dK]LL[dK]LL[dK]LLL-NH2) ? 34
